Test: Solubility by HPLC relative to a reference sample
Format: physicochemical
Conditions: aqueous buffer, phosphate buffer, at the pH given
Could you label it yes (1) if measured solubility is 7000 µg/mL or higher, and no (0) otherwise?

Reference set (6 entries):
1. CCc1cc2cc(C(=O)N(CC)Cc3nnn(C)n3)ccn2c1C(=O)c1ccc(CCCNC(C)(C)C)cc1 | yes (1)
2. CCCCc1cc2cc(C(=O)N(CC(=O)OC)C(C)C)ccn2c1C(=O)c1ccc(CCCN(CC)CCCC)cc1 | no (0)
3. CCc1cc2cc(C(=O)N(CC(=O)OC)C(C)C)ccn2c1C(=O)c1ccc(CCCNC(C)(C)C)cc1 | no (0)
4. CCc1cc2cc(C(=O)N(CC)Cc3cc(C)on3)ccn2c1C(=O)c1ccc(CCCNC(C)(C)C)cc1 | no (0)
5. CCc1cc2cc(C(=O)N(CC)Cc3nnn(C)n3)ccn2c1C(=O)c1ccc(CCC(C)(C)NC(C)(C)C)cc1 | yes (1)
6. CCc1cc2cc(C(=O)N(CC(=O)O)C(C)C)ccn2c1C(=O)c1ccc(CCCNC(C)(C)C)cc1 | no (0)

Now let's try a different one.
API: above_or_equal(metric=solubility, cutoff=7000 µg/mL) for item CCCN(CCC)CCCc1ccc(C(=O)c2c(CC)cc3cc(C(=O)N(CC(=O)OC)C(C)C)ccn23)cc1
yes (1)
